// reported abundance fitness for each item listed
B1: Peroxisome proliferator-activated receptor delta, residues 71 to 145; numbered along this chain, Q03181 (parent)
chain: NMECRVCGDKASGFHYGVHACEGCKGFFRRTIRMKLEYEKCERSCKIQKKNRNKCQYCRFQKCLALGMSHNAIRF

variants of: B1; assay: abundance fitness (aPCA) (normalised: wild type 0, dead -1); higher = more abundant; growth selection in yeast, the domain comes from the species named; conditions: Homo sapiens
value kind: abundance fitness

K62T    -0.234
H15A    -0.116
R43S    -0.045
E37I    -0.069
E42P    -0.25
N1C    -0.421
R5V    0.091
T31Y    -0.46
T31R    -0.778
K62R    -0.193
S69L    -0.053
F60S    -0.557
Y38K    -0.776
C21A    -0.705
Y57T    -0.77
H70R    0.063
F14Y    0.038
S44Q    0.069
E39S    -0.094
K54E    0.122
C7I    -0.877
T31K    -0.917
K35V    -0.33
A65R    -0.086
D9F    -0.283
C4E    -0.571
C58Q    -0.848
K40E    -0.113
A20S    -0.168
K10V    0
G13H    -0.545
R30V    -0.188
A11Q    -0.546
F28S    -0.625
Y57I    -0.919
S12G    -0.274
V18F    -0.527
K40F    0.02
Y57W    -0.125
E42V    -0.074
R74N    0.011
R29Q    0.168
Q61R    -0.296
K35D    -0.028
K49L    0.066
C7K    -0.63

Measured values drawn from the Human Domainome abundance scans (Beltran et al. 2025) for this set.
